test system: HIV-1 infection of TZM-bl cells; experiment: HIV-1 infectivity enhancement assay, β-galactosidase luminescence; assay type: cell-based; settings: infectivity n-fold relative to virus only; Feb2021 run
Listing: n-fold to virus (Feb2021) of selected substances
// no unit, no text: just the number

// known answers, use as guide
EIEIQINM [TM95 / (TM75)]
1.525
CEIEIQI [AR2/ TM142]
1.173
KVKVQVVV [TG8]
1.473

Now consider the entry below.
Prompt: Can you share its n-fold to virus (Feb2021)? I mean this substance: KFKFQFFF [TG12]
Completion: 16.97

* * *

test: Zeta-potential measurement; assay type: physicochemical; conditions: 1 mg/mL in PBS pH 7.4 from 10 mg/mL DMSO stock, 1 d RT, 60 µL diluted in 600 µL 1 mM KCl; Zetasizer Nano ZS, Smoluchowski; mean of triplicate
// Criterion not met strictly below -5 mV in Zeta pot. / mV; Criterion met otherwise

The examples below pair each entry with its known result.
KLVFFAK [reference compound]
Criterion met
VLYVGSKT [reference compound]
Criterion not met
IIKIIK [reference compound]
Criterion not met
CKAKAQANM
Criterion not met
IFQINS [reference compound]
Criterion not met

Consider now this further substance.
Prompt: Record "RIRFHIW" ; criterion: Zeta pot. / mV no lower than -5 mV. Met?
Completion: Criterion met

* * *

Listing: Zeta-Pot. of selected substances
test: Zeta-potential measurement; assay type: physicochemical; details: zeta potential of peptide assemblies

KFKFKFQF
15.2
KIKIQIN
3.34
NMWQKIKIQI
8.26

Prompt: Can you share its Zeta-Pot.? I mean this substance: "RGDCKFKFQF"
Completion: 13.87

Prompt: Can you share its Zeta-Pot.? I mean this substance: "KIKIQINAWQ"
Completion: 13.1

Prompt: Can you share its Zeta-Pot.? I mean this substance: "KIKIKIKI"
Completion: 5.46

Prompt: Can you share its Zeta-Pot.? I mean this substance: "KVKVQVV"
Completion: -7.92

Prompt: Can you share its Zeta-Pot.? I mean this substance: "RGDCKIKIQINM"
Completion: 11.3

Prompt: Can you share its Zeta-Pot.? I mean this substance: "KIKIQINM"
Completion: 8.51

Prompt: Can you share its Zeta-Pot.? I mean this substance: "HHHHEIEIEIEI"
Completion: -6.91

Prompt: Can you share its Zeta-Pot.? I mean this substance: "EFEFQF"
Completion: -24.5

* * *

assay type: physicochemical; details: ThT fluorescence relative to blank (42.1851851851852 a.u.)
measuredQuantity: Tht rel to blank (42.1851851851852)
// no unit, no text: just the number

Prompt: Can you share its Tht rel to blank (42.1851851851852)? I mean this substance: MKIKIQINMWQ [TM52]
Completion: 4.061

Prompt: Can you share its Tht rel to blank (42.1851851851852)? I mean this substance: KLKQLL [KM27 / psis14]
Completion: 1.089

Prompt: Can you share its Tht rel to blank (42.1851851851852)? I mean this substance: QCKIKIQI [CK3]
Completion: 2.039

Prompt: Can you share its Tht rel to blank (42.1851851851852)? I mean this substance: CKIKQIINM [BL1]
Completion: 14.67

Prompt: Can you share its Tht rel to blank (42.1851851851852)? I mean this substance: CKFKFQFNM [BL3]
Completion: 2.383

* * *

tested on: HIV-1 infection of TZM-bl cells; experiment: HIV-1 infectivity enhancement assay, β-galactosidase luminescence; format: cell-based; conditions: Feb2021; n-fold enhancement relative to EF-C
// N strictly below 0.03 in Rel-to EFC (Feb-2021); Y otherwise

The examples below pair each entry with its known result.
CKAKAQA [TM155]
Y
QCKFKFQFNMWQ [CK7]
Y
CKIKIQI [MG3b]
Y
KAKAQANMWQ [JG3]
N
KIKQII [msis21]
N

Prompt: Record KAKAQANM [TM152] ; criterion: Rel-to EFC (Feb-2021) no lower than 0.03. Met?
Completion: N

Prompt: Record KFKFQFNM [BL6a] ; criterion: Rel-to EFC (Feb-2021) no lower than 0.03. Met?
Completion: Y

Prompt: Record ILKNLSRSRKIKIQINMWQ [TM92] ; criterion: Rel-to EFC (Feb-2021) no lower than 0.03. Met?
Completion: Y

Prompt: Record KIKQIINM [JGA2] ; criterion: Rel-to EFC (Feb-2021) no lower than 0.03. Met?
Completion: Y

* * *

assay: Conversion rate (CR) assay with fluorescamine; assay type: physicochemical
measuredQuantity: Conversion Rate / % (%)
# output: bare number, implied unit %

// known answers, use as guide
KAKAQANMWQ [JG3]
47.47
KIKIQI [JJA4]
32.82
CKFKQFF [CK15]
90.05
EIEIQINMWQ [VH8]
89.92
QCKFKQFFNMWQ [CK10]
98.72
QCKIKIQINM [CK2]
89.7

Prompt: Can you share its Conversion Rate / %? I mean this substance: CKFKQFFNMWQ [CK13]
Completion: 98.72

Prompt: Can you share its Conversion Rate / %? I mean this substance: QCKIKQIINMWQ [reference compound]
Completion: 76.98

Prompt: Can you share its Conversion Rate / %? I mean this substance: CKAKAQANMWQ [BL8]
Completion: 92.9

Prompt: Can you share its Conversion Rate / %? I mean this substance: KFKFQFFF [TG12]
Completion: 97.92

Prompt: Can you share its Conversion Rate / %? I mean this substance: QCKAKAQANMWQ [CK22]
Completion: 89.28

Prompt: Can you share its Conversion Rate / %? I mean this substance: EIEIQINM [TM95 / (TM75)]
Completion: 79.85

Prompt: Can you share its Conversion Rate / %? I mean this substance: QCKFKFQFNMWQ [CK7]
Completion: 98.91

Prompt: Can you share its Conversion Rate / %? I mean this substance: CKIKIQINM [MG2]
Completion: 79

* * *

assay: Turbidity, derived count rate of scattered light; type: physicochemical; conditions: Fig S8 panels A, C; log of derived count rate, asymmetric log errors
measuredQuantity: Log Count Rate
// no unit, no text: just the number

// known answers, use as guide
CKWKWQW [KB4]
3.876
KFKFQFNMWQ [JG4]
2.866
QCKIKIQINMWQ [EF-C opt]
3.918
HHHHKIKIKIKIYYYY [TM6]
4.107
CKFKQFF [CK15]
0.4099
CKIKIQI [MG3b]
3.386

Prompt: Can you share its Log Count Rate? I mean this substance: CKFKFQFW [TM72]
Completion: 4.466

Prompt: Can you share its Log Count Rate? I mean this substance: KIKQIINMWQ [JG2]
Completion: 2.789

Prompt: Can you share its Log Count Rate? I mean this substance: CHLHLQL [CN9]
Completion: 3.062

Prompt: Can you share its Log Count Rate? I mean this substance: CKFKFQF [BL4]
Completion: 3.725

* * *

assay type: physicochemical; design: key: 1 = fibrils present; 0 non-fibrillar structures; details: FigS12 panel A; fibril category by TEM
measuredQuantity: TEM 2cat
// no unit, no text: just the number

// known answers, use as guide
HRRHFRHKITKKK
0
FDPFDPFDP
0
KFKFQF
0
RLRLTLC
1

Prompt: Can you share its TEM 2cat? I mean this substance: "NMWQKAKAQA"
Completion: 1

Prompt: Can you share its TEM 2cat? I mean this substance: "CEFEFQF"
Completion: 1

Prompt: Can you share its TEM 2cat? I mean this substance: "HLHLPLL"
Completion: 0

* * *

assay: Zeta-potential measurement; type: physicochemical; settings: category derived from the zeta potential
Listing: Zeta category ( +1 = if > 4 mV;-1 = if < -4 mV; 0 = -4mV to 4 mV) of selected substances

// known answers, use as guide
KFKFQFW [TM71]
1 (+1 = if > 4 mV)
KLKLQLL [TG4 / (KM2)]
-1 (-1 = if < -4 mV)
HHHHKIKIKIKIYYYY [TM6]
1 (+1 = if > 4 mV)
CKIKIQI [MG3b]
1 (+1 = if > 4 mV)
KIKIQIC [TM112 / CN11]
1 (+1 = if > 4 mV)

Prompt: Can you share its Zeta category ( +1 = if > 4 mV;-1 = if < -4 mV; 0 = -4mV to 4 mV)? I mean this substance: CKFKQFF [CK15]
Completion: 1 (+1 = if > 4 mV)

Prompt: Can you share its Zeta category ( +1 = if > 4 mV;-1 = if < -4 mV; 0 = -4mV to 4 mV)? I mean this substance: CEFEFQFNMWQ [TM140]
Completion: -1 (-1 = if < -4 mV)

Prompt: Can you share its Zeta category ( +1 = if > 4 mV;-1 = if < -4 mV; 0 = -4mV to 4 mV)? I mean this substance: CKFKQFFNM [CK14]
Completion: 1 (+1 = if > 4 mV)

Prompt: Can you share its Zeta category ( +1 = if > 4 mV;-1 = if < -4 mV; 0 = -4mV to 4 mV)? I mean this substance: QCKFKQFF [CK12]
Completion: 1 (+1 = if > 4 mV)

Prompt: Can you share its Zeta category ( +1 = if > 4 mV;-1 = if < -4 mV; 0 = -4mV to 4 mV)? I mean this substance: KIKIKIKIYYYY [JR7]
Completion: 1 (+1 = if > 4 mV)

Prompt: Can you share its Zeta category ( +1 = if > 4 mV;-1 = if < -4 mV; 0 = -4mV to 4 mV)? I mean this substance: EFEFQFNMWQ [JH1]
Completion: 0 (0 = -4mV to 4 mV)
